Assay: Fluorescence excitation/emission of the styryl dye library compounds
Assay type: physicochemical
Details: EX/EM peak no. 2
Decide using EM(nm): a value greater than or equal to 600 nm is true, a smaller one is false.

1) C(=Cc1ccc2ccccc2c1)c1cc[n+](C23CC4CC(CC(C4)C2)C3)cc1.[Br-]	false
2) COc1ccc2c(ccc(/C=C/c3ccc4ccccc4c3)[n+]2C)c1.[I-]	false
3) COc1ccc(C=Cc2ccc3cc(OC)ccc3[n+]2C)cc1.[I-]	true

Then this compound:
*Q* Textbook exercise: given the entry C[n+]1c(C=Cc2ccc(-c3ccccc3)cc2)ccc2ccccc21.[I-] , state whether its EM(nm) is greater than or equal to 600 nm.
*A* false

* * *

Test: Fluorescence excitation/emission of the styryl dye library compounds
Format: physicochemical
Conditions: EX/EM peak no. 1
Would you kindly list EX(nm) for each of these molecules?
Answers are plain numbers, in nm.

1. Cc1cccc(C=Cc2ccc(N(C)C)c3ccccc23)[n+]1C.[I-] [Compound L27]	430

Here are 2 molecules. What values of EX(nm) were reported for them?
1. C[n+]1ccc(C=Cc2cccc3ccccc23)cc1.[I-] [Compound A32]
2. CCc1ccc(C=Cc2ccccn2)[n+](C)c1.[I-] [Compound E40]

*A*
1. 400
2. 390

*Q* Answer with the recorded EX(nm) for the molecule listed here: CC(=O)Nc1ccc(/C=C/c2cc[n+](C)c3ccccc23)cc1.[I-] [Compound G18]
*A* 430

* * *

Experiment: Fluorescence excitation/emission of the styryl dye library compounds
Assay type: physicochemical
Conditions: EX/EM peak no. 1
Quick rule for you: EM(nm) under 600 nm gets Fulfilled, anything else gets Not fulfilled.

1. C[n+]1ccc(/C=C/c2ccc3c(c2)OCO3)cc1Br.[I-]	Fulfilled
2. COc1ccc(/C=C/c2cc[n+](C)c(Br)c2)cc1.[I-]	Fulfilled
3. COc1ccc2c(ccc(C=Cc3ccc(F)cc3)[n+]2C)c1.[I-]	Not fulfilled
4. O=[N+]([O-])c1ccccc1C=CC=Cc1cc[n+](C23CC4CC(CC(C4)C2)C3)cc1.[Br-]	Fulfilled
5. Cc1cccc(/C=C/c2c[nH]c3ccccc23)[n+]1C.[I-]	Fulfilled

*Q* Field: below-cutoff. Rule: recorded EM(nm) strictly less than 600 nm. Subject: COc1ccc(C=Cc2cc[n+](C34CC5CC(CC(C5)C3)C4)cc2)c2ccccc12.[Br-]
*A* Fulfilled

*Q* Determine if COc1ccc(C=Cc2cc[n+](C)cc2)c2ccccc12.[I-] shows EM(nm) strictly lower than 600 nm.
*A* Fulfilled

*Q* Please determine if C[n+]1c(C=Cc2c3ccccc3cc3ccccc23)ccc2ccccc21.[I-] is below 600 nm in terms of EM(nm).
*A* Not fulfilled

*Q* Dear colleague, could you confirm whether EM(nm) of COc1cc(OC)c(OC)cc1C=Cc1cc[n+](C)cc1.[I-] falls below 600 nm? Thanks.
*A* Fulfilled

*Q* is_below(EM(nm), 600 nm) for CCc1ccc(C=Cc2ccc(N(C)C)cc2)[n+](C)c1.[I-] ?
*A* Fulfilled

*Q* Please check: EM(nm) for COc1ccc2c(ccc(C=CCc3ccccc3)[n+]2C)c1.[I-] , strictly under 600 nm or not?
*A* Not fulfilled

*Q* Would you kindly verify if EM(nm) of Cc1ccnc(-c2cc(C=Cc3ccc(OCc4ccccc4)c(OCc4ccccc4)c3)cc[n+]2C)c1.[I-] is strictly less than 600 nm?
*A* Fulfilled

Measured values drawn from patent US20050054006A1 for this set.
